targetSystem: Cannabinoid receptor 1 (Homo sapiens, UniProt P21554)
Sequence (P21554 whole entry): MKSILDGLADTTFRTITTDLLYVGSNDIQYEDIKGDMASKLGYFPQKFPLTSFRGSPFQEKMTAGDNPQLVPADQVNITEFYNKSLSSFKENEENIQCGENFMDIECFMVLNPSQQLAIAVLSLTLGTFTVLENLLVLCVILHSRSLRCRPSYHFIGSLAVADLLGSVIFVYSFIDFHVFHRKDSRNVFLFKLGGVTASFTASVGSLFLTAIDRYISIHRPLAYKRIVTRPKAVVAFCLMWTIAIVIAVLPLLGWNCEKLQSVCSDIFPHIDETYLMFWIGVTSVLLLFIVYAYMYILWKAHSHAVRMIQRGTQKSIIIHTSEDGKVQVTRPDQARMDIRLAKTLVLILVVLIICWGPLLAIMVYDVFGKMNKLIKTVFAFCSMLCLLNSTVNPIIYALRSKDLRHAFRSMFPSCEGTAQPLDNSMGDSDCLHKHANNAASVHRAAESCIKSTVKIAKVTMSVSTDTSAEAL
protocol: Antagonist activity at human CB1 receptor expressed in HEK293 cells assessed as inhibition of Eu-GTP binding
Format: cell-based
pEC50: −log10 of the molar value.
reportedProperty: pEC50

molecule: CCCC#Cc1ccc(-c2c(CC)c(C(=O)NN3CCCCCC3)nn2-c2ccc(Cl)cc2Cl)s1
reportedMeasurement: 7.78
--
molecule: Cc1c(C(=O)NN2CCCCC2)nn(-c2ccc(Cl)cc2Cl)c1-c1ccc(C#CCOC(C)C)s1
reportedMeasurement: 7.24
--
molecule: CCCCC#Cc1ccc(-c2c(C)c(C(=O)NN3CCCCCC3)nn2-c2ccc(Cl)cc2Cl)s1
reportedMeasurement: 8.32
--
molecule: Cc1c(C(=O)NN2CCCCCC2)nn(-c2ccc(Cl)cc2Cl)c1-c1ccc(Cl)s1
reportedMeasurement: 6.87
--
molecule: Cc1c(C(=O)NN2CCCCCC2)nn(-c2ccc(Cl)cc2Cl)c1-c1ccc(C#CCC(C)C)s1
reportedMeasurement: 7.84
--
molecule: Cc1c(C(=O)NN2CCCCC2)nn(-c2ccc(Cl)cc2Cl)c1-c1ccc(C#CCNC(C)C)s1
reportedMeasurement: 6.41
--
molecule: CCCCC#Cc1ccc(-c2c(C)c(C(=O)NN3CC4CCCC4C3)nn2-c2ccc(Cl)cc2Cl)s1 (stereo not drawn)
reportedMeasurement: 8.24
--
molecule: Cc1c(C(=O)NN2CCCCCC2)nn(-c2ccc(Cl)cc2Cl)c1-c1ccc(Br)s1
reportedMeasurement: 7.19
--
molecule: CCCCC#Cc1ccc(-c2c(C)c(C(=O)NCCCC)nn2-c2ccc(Cl)cc2Cl)s1
reportedMeasurement: 7.53
--
molecule: Cc1c(C(=O)NN2CC3CCCC3C2)nn(-c2ccc(Cl)cc2Cl)c1-c1ccc(C#CC2CC2)s1 (stereo not drawn)
reportedMeasurement: 6.98
--
molecule: CCC/C=C/c1ccc(-c2c(C)c(C(=O)NN3CC4CCCC4C3)nn2-c2ccc(Cl)cc2Cl)s1 (stereo not drawn)
reportedMeasurement: 7.15
--
molecule: CCc1c(C(=O)NN2CCCCC2)nn(-c2ccc(Cl)cc2Cl)c1-c1ccc(C#CCC(C)C)s1
reportedMeasurement: 7.64
--
molecule: Cc1c(C(=O)NN2CCCCC2)nn(-c2ccc(Cl)cc2Cl)c1-c1ccc(C#CCC(C)C)s1
reportedMeasurement: 7.92
